Listed next: entries and their corresponding VT (virus titre).
test system: HSV-1-PATTON; test: Viral plaque titration in human fetal fibroblasts (HFF); type: cell-based, Herpes simplex virus; settings: Example 1; HFF cells; no-drug control VT 147; drug µg/ml: G* 1.2, BVDU 0.11, ACG 2.0, PAA 250, same in combinations
experimental-endpoint: VT (virus titre)

compound	value-observed
O=c1[nH]c(=O)n([C@H]2C[C@H](O)[C@@H](CO)O2)cc1/C=C/Br	2.1 PFU per ml, x10^5
Nc1nc2c(ncn2COC(CO)CO)c(=O)[nH]1	1.1 PFU per ml, x10^5
Nc1nc2c(ncn2COCCO)c(=O)[nH]1 [ACG, 9 - [2 - hydroxyethoxymethyl]guanine]	4.7 PFU per ml, x10^5
O=C(O)CP(=O)(O)O	3.2 PFU per ml, x10^5

Sourced from patent EP0101441B1
